Data credit: patent US20170232083A1

Recorded IFN-γ ELISpot response values for a group of sequences are listed next.
Test system: PBMC (polyclonal gluten-specific T cells) of paediatric and adult CD patients
assay-summary: IFN-γ ELISpot of PBMC after 3 day oral wheat challenge (SFU, % of maximal peptide response, dominance scores, EC50; Examples 5-6)
Assay type: cell-based, human
stated-conditions: patient P, 11-17 yrs; after oral wheat challenge; cut-off 21.6 SFU
reported-metric: IFN-γ ELISpot response (SFU)

• LQPFPQPELPYPQPQ = 41.5
• PFPEQPEQPYPQQ = 15
• QPFPQPQQPFSQQ = 10
• FPQPEQEFPQPQQ = 11

----------
Test system: PBMC (polyclonal gluten-specific T cells) of paediatric and adult CD patients
assay-summary: IFN-γ ELISpot of PBMC after 3 day oral wheat challenge (SFU, % of maximal peptide response, dominance scores, EC50; Examples 5-6)
Type: cell-based, human
stated-conditions: patient eleven, 6-10 yrs; after oral wheat challenge; cut-off 10 SFU
Decision: IFN-γ ELISpot response >= 9 SFU yields yes (1), all other cases yield no (0).

* PQQPQQSFPQQQQPA | no (0)
* LQPRPQPELPYPQP | yes (1)
* PEQPFPEQPEQPF | yes (1)
* LPYPQPELPYPQP [Peptide W01] | yes (1)
* FPQPQQQFPQPQQ | no (0)
* PEQTFPEQPQLPF | no (0)
* PFPEQPEQPYPQQ | no (0)
* PFPEQPEQPFPQP | no (0)
* QPFPQPQQPIPVQ [Peptide W04] | no (0)
* QFIQPEQPFPQQ | no (0)
* FLQPEQPFPEQPEQPYPEQPEQPFPQ | yes (1)
* QPFPQPQQPFSQQ | no (0)
* GIIQPQQPAQL | no (0)
* LQPFPQPELPFPQP [Peptide W06] | yes (1)
* LQPFPQPELPYSQP | yes (1)
* LQPFPQPQLPYPQP | yes (1)
